target: HIS-PDZ1-2 protein (PSD-95 PDZ1-2 tandem, residues 61-249, with tag …) (human, UniProt P78352 61-249); assay: FP competition, fluorescent NR2B probe
Numbered stars: 1 amine (or outer) side, 2 acyl side, 3 side chain; on linkers, the order of the positions; unused ones are H or OH. CO(CH2CH2O)13CH2CH2CO = O=C(CCOCCOCCOCCOCCOCCOCCOCCOCCOCCOCCOCCOCCOCCC(=O)[*:2])[*:1]
The binders listed here are annotated with their Ki.
Report the value in µM with no unit label.

binder: KSGYEKLSSIESDV (also called NR2B peptide (1); NR2B WT) [NR2B (1), non-fluorescent NR2B peptide KSG-YEKLSSIESDV]
property: Ki
unit-of-measurement: µM
endpoint-value: 6.8

Now look at this one.
Data request: Name the reported Ki value associated with the binder {CO(CH2CH2O)13CH2CH2CO}-GETDV-OH (not fully specified (residue 2); printed as (GE[N-Cyclohexylethyl]TDV)2PEG12 (75); also: dimer: two peptides N-terminally joined via PEG12-diacid, Dimeric ligand; also called (GE[R]TDV)2-PEG12 (75)) [(GE[N-Cyclohexylethyl]TDV)2PEG12 (75)]
Data returned: 5.5

meta.source: patent US20160176924A1
